molecular target: NS5B (Hepatitis C virus genotype 1b, UniProt P26663); construct: NS5B with a C-terminal 10-His tag was expressed in E. coli; 10-His (C); made in house; host or cells: E. coli; test: SPR analysis (Biacore T200, immobilized NS5B); format: binding; settings: corrected response above 5 RU indicates positive binding
Sequence (P26663 2420-3010): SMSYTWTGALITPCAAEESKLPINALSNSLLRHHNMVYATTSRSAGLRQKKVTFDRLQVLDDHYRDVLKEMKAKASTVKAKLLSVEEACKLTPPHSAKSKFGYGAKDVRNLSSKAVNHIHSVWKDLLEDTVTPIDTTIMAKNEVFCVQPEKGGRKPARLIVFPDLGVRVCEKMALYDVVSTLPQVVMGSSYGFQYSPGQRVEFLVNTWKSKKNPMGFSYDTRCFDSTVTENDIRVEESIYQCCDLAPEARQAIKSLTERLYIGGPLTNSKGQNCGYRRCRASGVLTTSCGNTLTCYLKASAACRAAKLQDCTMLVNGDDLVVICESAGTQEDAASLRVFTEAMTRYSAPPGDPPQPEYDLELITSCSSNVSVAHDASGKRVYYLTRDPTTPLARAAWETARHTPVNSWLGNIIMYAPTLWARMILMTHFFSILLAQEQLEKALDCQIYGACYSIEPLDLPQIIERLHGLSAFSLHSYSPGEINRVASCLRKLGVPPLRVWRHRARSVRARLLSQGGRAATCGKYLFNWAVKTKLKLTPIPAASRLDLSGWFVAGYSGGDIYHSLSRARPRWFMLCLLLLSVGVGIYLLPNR
attribute_measured: SPR Corr. response (RU)
Report only the number, with the unit RU understood.

See these solved cases before continuing.
• N#CCc1ccc(O)cc1 [Fragment 114] = 55.6
• Cc1nc2ccccc2nc1C [Fragment 339] = 12.2

Prompt: Hi! What's the reported SPR Corr. response (RU) for Cc1cc(N)n(-c2ccccc2)n1 [Fragment 131] on NS5B (Hepatitis C virus genotype 1b, UniProt P26663)?
Response: 14.7

Prompt: Identify the measured SPR Corr. response (RU) of Oc1ccc(F)c(Cl)c1 [Fragment 85] for NS5B (Hepatitis C virus genotype 1b, UniProt P26663).
Response: 30.9

----------
target: HCV RNA polymerase NS5B (Hepatitis C virus genotype 1b, UniProt P26663); construct: NS5B with a C-terminal 10-His tag was expressed in E. coli; 10-His (C); made in house; host or cells: E. coli; test: biochemical; assay type: binding; conditions: P/L = 2:1, protein 25 μM; read-out: Kd
Sequence (P26663 2420-3010): as above
pKd: −log10 of the molar value.
Please use met whenever pKd is not below 2, and not met whenever it is.

Prompt: Item `Cn1c(=O)cc(O)c2ccccc21` with pKd of 2 or above?
Response: met

Prompt: Dear colleague, could you confirm whether `Oc1ccc(F)c(Cl)c1` has pKd at or above 2?
Response: met

Prompt: Given the entry `Cc1cc(N)n(-c2ccccc2)n1` , answer whether its pKd meets or surpasses 2.
Response: not met

Prompt: Quick check, pKd >= 2? `O=C(O)c1ccc(C(F)(F)F)cc1`
Response: met

Prompt: Dear colleague, could you confirm whether `Oc1ccc(SC(F)(F)F)cc1` has pKd at or above 2?
Response: met

----------
biological target: HCV RNA polymerase NS5B (Hepatitis C virus genotype 1b); construct: NS5B with a C-terminal 10-His tag was expressed in E. coli; 10-His (C); made in house; host or cells: E. coli; test: biochemical; format: binding; settings: P/L = 1:1, protein 25 μM; estimated from MS-measured bound ligand concentration; read-out: Kd
Output T for records whose Kd is lower than 6 mM, F for records at or above 6 mM.

Please review the entries below; each comes with its answer.
* Oc1ccc(F)c(Cl)c1 [Fragment 85] | T
* Nc1ccc(C(F)(F)F)cn1 [Fragment 162] | F
* Cc1ccc2oc(=O)ccc2c1 [Fragment 117] | F
* O=C(O)c1ccc(C(F)(F)F)cc1 [Fragment 204] | T
* Cc1cc(N)n(-c2ccccc2)n1 [Fragment 131] | F
* Oc1ccc(SC(F)(F)F)cc1 [Fragment 237] | T

Prompt: Hello, I'm reviewing records and need to know if Kd of Cn1c(=O)cc(O)c2ccccc21 [Fragment 130] is below 6 mM. Could you check?
Response: T

----------
target: HCV RNA polymerase NS5B (Hepatitis C virus genotype 1b, UniProt P26663); construct: NS5B with a C-terminal 10-His tag was expressed in E. coli; 10-His (C); made in house; host or cells: E. coli; test: biochemical; format: binding; details: Kd, P/L = 1:1, protein 25 μM; estimated from MS-measured bound ligand concentration
// values below are reported Kd
Write the figure, then the unit, nothing else.

Example molecules with recorded Kd:
* N#CC(c1ccccc1)N1CCOCC1 (stereo not drawn) | 20 mM
* N#CCc1ccc(O)cc1 | 1.01 mM

Consider the additional molecule presented here.
Prompt: Looking for the measured Kd of `Cc1nc2ccccc2nc1C` , can you help?
Response: 10.2 mM

----------
Biological target: HCV RNA polymerase NS5B (Hepatitis C virus genotype 1b, UniProt P26663)
Construct: NS5B with a C-terminal 10-His tag was expressed in E. coli; 10-His (C); made in house; host or cells: E. coli
Assay: biochemical
Format: binding
Details: derived from Kd at P/L 1:1 and heavy atom count
Experimental: Binding degree of each fragment represented by the fraction of fragment ligands over the total amount of fragments during incubation reflects the relative order of binding strengths. In order to determine the dissociation constant of each fragment ligand, we prepared calibration curves for the MS responses of ten fragments in a mixture (Figure S1) and measured the recovery rate of each fragment (Table S3), which were used to derive the actual concentrations of fragments bound to the target. […]
Each entry below lists one item and its recorded LE (ligand efficiency) value.
Answer using only a numeral; do not append any unit.

Worked examples follow.
• N#CC(c1ccccc1)N1CCOCC1 (stereo not shown) = 0.14
• Nc1ccc(C(F)(F)F)cn1 = 0.25
• Cc1ccc2oc(=O)ccc2c1 = 0.22
• Oc1ccc(SC(F)(F)F)cc1 = 0.25
• Cc1nc2ccccc2nc1C = 0.22
• N#CCc1ccc(O)cc1 = 0.40

Prompt: For the molecule shown here, `O=C(O)c1ccc(C(F)(F)F)cc1` , give the reported LE (ligand efficiency).
Response: 0.25

Prompt: Quick check: LE (ligand efficiency) of `Cn1c(=O)cc(O)c2ccccc21` ?
Response: 0.30

Prompt: Any idea what LE (ligand efficiency) was measured for `Oc1ccc(F)c(Cl)c1` ?
Response: 0.33

Prompt: Need LE (ligand efficiency) of `Cc1cc(N)n(-c2ccccc2)n1` , thanks.
Response: 0.20

----------
compounds and their reported pKd
target: HCV RNA polymerase NS5B (Hepatitis C virus genotype 1b, UniProt P26663); construct: NS5B with a C-terminal 10-His tag was expressed in E. coli; 10-His (C); made in house; host or cells: E. coli; assay: biochemical; format: binding; settings: Kd, P/L = 1:2, protein 25 μM
In textbook form, pKd equals minus log to base ten of the concentration in mol/L.

Some compounds with known pKd results, for comparison:
• N#CC(c1ccccc1)N1CCOCC1 (stereo not drawn) [Fragment 328] = 1.58
• N#CCc1ccc(O)cc1 [Fragment 114] = 2.92

Could you now consider this next compound?
Prompt: Return pKd measured with HCV RNA polymerase NS5B (Hepatitis C virus genotype 1b, UniProt P26663) given this compound: Cc1nc2ccccc2nc1C [Fragment 339]
Response: 2.05

----------
biological target: HCV RNA polymerase NS5B (Hepatitis C virus genotype 1b, UniProt P26663); construct: NS5B with a C-terminal 10-His tag was expressed in E. coli; 10-His (C); made in house; host or cells: E. coli; experiment: biochemical; format: binding; conditions: P/L = 1:2, protein 25 μM; read-out: Kd
// boundary case: Kd equal to 7 mM maps to Not satisfied; strictly smaller maps to Satisfied

- Nc1ccc(C(F)(F)F)cn1 [Fragment 162]: Not satisfied

Prompt: Does O=C(O)c1ccc(C(F)(F)F)cc1 [Fragment 204] have Kd strictly under 7 mM?
Response: Satisfied

Prompt: A record lists Oc1ccc(SC(F)(F)F)cc1 [Fragment 237] . Is its Kd below 7 mM?
Response: Satisfied

Prompt: Just wondering, is Kd of Cc1ccc2oc(=O)ccc2c1 [Fragment 117] below 7 mM?
Response: Not satisfied

Prompt: Determine if Cc1cc(N)n(-c2ccccc2)n1 [Fragment 131] shows Kd strictly lower than 7 mM.
Response: Not satisfied

Prompt: Regarding Cn1c(=O)cc(O)c2ccccc21 [Fragment 130] , kindly confirm whether its Kd is beneath 7 mM.
Response: Satisfied

----------
Target: NS5B (Hepatitis C virus genotype 1b)
Construct: NS5B with a C-terminal 10-His tag was expressed in E. coli; 10-His (C); made in house; host or cells: E. coli
Experiment: SPR analysis (Biacore T200, immobilized NS5B)
Assay type: binding
Conditions: corrected response above 5 RU indicates positive binding
Method: In order to determine the dissociation constant of each fragment ligand, we prepared calibration curves for the MS responses of ten fragments in a mixture (Figure S1) and measured the recovery rate of each fragment (Table S3), which were used to derive the actual concentrations of fragments bound to the target. Kd values were then calculated based on the measured concentrations of fragment ligands dissociated from the target (Table S3). […]
Entries and their measured SPR Corr. response (RU) follow.
Field: numeric (RU). Do not append units.

Here's what some known entries look like.
* Oc1ccc(SC(F)(F)F)cc1 | 10.0
* Cc1ccc2oc(=O)ccc2c1 | 24.6
* Cn1c(=O)cc(O)c2ccccc21 | 18.4

# input for lookup
Prompt: Would you mind telling me what SPR Corr. response (RU) value was observed for `Nc1ccc(C(F)(F)F)cn1` ?
Response: 7.6
